- procedureDetails: Bidirectional transport assay across parent MDCK II cell monolayer
- Type: in vitro ADME, canine
- protocolConditions: dog, MDCK-MDR1, pH 7.4; 10 μM, 120 min, parent cells of the MDR1 experiment (Table 2), mean ± SE, n = 2
measurementLabel: Papp B→A at 120 min, 10 μM (×10⁻⁶ cm/s)
Report the value in ×10⁻⁶ cm/s with no unit label.

What Papp B→A at 120 min, 10 μM value was documented for this compound, CC(C)=CCc1cc(/C=C/C(=O)O)ccc1O ?
9.9

###

Attribute: fold increase of AUC versus BGP administered alone
- procedureDetails: Clinical trial: plasma concentration and AUC of cinnamic acid derivatives after ingestion of BGP alone or BGP plus herbal extract mixture
- Type: in vivo
- protocolConditions: humans, BGP and herbal extracts co-administered, 0–24 h
Please state the figure in fold; there is no need to write the unit.

compound="CC(C)=CCc1cc(/C=C/C(=O)O)ccc1O [drupanin]" testvalue=1.5
compound="CC(C)=CCc1cc(/C=C/C(=O)O)cc(CC=C(C)C)c1O [artepillin C]" testvalue=1.7

Recorded fold increase of AUC versus BGP administered alone of CC(C)=CCc1cc(C=CC(=O)O)cc(O)c1O [3,4‐dihydroxy‐5‐prenylcinnamic acid] , please.
1.8

Moving on to CC(C)=CCc1cc(/C=C/C(=O)O)cc(C/C=C(\C)CO)c1O [capillartemisin A]
1.6

###

- procedureDetails: Bidirectional transport assay across parent MDCK II cell monolayer
- Format: in vitro ADME, canine
- protocolConditions: dog, MDCK, pH 7.4, 10 μM, Papp B to A / Papp A to B, Table 2 experiment; read-out: Flux ratio (MDCK II) (efflux ratio, ER)
measurementLabel: efflux ratio at 120 min, 10 μM

Can you share its efflux ratio at 120 min, 10 μM? I mean this compound: CC(C)=CCc1cc(/C=C/C(=O)O)ccc1O
0.9

###

- targetOrSystem: MDR1 (P-gp) (Homo sapiens, UniProt P08183)
- Construct: host or cells: MDCK II (Madin-Darby canine kidney) cells overexpressing MDR1
- Sequence (P08183 whole entry): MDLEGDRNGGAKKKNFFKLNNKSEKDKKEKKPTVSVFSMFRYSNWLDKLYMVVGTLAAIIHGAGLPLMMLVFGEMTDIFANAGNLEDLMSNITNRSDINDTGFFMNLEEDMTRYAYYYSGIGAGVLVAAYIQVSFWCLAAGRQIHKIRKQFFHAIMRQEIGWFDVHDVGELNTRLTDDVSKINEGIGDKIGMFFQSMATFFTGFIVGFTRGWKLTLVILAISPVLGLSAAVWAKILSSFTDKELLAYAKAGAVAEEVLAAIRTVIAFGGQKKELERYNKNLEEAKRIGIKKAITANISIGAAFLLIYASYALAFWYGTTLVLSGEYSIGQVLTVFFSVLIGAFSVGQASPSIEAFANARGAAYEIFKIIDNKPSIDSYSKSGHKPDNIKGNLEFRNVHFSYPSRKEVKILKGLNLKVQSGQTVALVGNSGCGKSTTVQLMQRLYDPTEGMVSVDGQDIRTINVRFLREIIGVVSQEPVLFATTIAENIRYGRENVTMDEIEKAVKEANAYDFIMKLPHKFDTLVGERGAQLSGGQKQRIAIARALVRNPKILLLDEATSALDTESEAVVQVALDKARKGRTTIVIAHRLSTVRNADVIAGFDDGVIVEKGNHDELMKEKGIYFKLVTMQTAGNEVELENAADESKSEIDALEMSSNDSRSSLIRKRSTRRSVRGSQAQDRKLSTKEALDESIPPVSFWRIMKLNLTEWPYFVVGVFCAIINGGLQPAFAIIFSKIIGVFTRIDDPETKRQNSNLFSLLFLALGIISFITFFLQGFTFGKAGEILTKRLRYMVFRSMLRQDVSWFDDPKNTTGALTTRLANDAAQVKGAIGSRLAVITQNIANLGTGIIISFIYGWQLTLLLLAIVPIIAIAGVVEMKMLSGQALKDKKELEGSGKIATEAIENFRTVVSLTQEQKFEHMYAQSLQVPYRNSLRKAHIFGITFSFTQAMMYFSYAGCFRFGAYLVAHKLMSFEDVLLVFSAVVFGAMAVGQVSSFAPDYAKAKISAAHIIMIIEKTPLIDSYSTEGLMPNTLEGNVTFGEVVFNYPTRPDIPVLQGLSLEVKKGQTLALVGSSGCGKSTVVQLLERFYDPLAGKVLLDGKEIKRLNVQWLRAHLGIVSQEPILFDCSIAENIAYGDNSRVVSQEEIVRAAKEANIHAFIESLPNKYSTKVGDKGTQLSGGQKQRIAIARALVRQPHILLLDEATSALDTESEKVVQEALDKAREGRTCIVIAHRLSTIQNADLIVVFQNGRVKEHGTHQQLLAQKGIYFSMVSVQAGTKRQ
- procedureDetails: Bidirectional transport assay across MDCK II-MDR1 cell monolayer
- Type: in vitro ADME
- protocolConditions: dog, MDCK-MDR1, pH 7.4; read-out: Flux ratio (MDCK II‐MDR1) (efflux ratio, ER)
measurementLabel: efflux ratio at 120 min, 10 μM
Keep it simple and answer with nothing but the number.

For MDR1 (P-gp) (Homo sapiens, UniProt P08183), provide efflux ratio at 120 min, 10 μM of CC(C)=CCc1cc(/C=C/C(=O)O)ccc1O please.
0.8

###

- targetOrSystem: BCRP (Homo sapiens)
- Construct: host or cells: MDCK II (Madin-Darby canine kidney) cells overexpressing BCRP
- Sequence (Q9UNQ0 1-655): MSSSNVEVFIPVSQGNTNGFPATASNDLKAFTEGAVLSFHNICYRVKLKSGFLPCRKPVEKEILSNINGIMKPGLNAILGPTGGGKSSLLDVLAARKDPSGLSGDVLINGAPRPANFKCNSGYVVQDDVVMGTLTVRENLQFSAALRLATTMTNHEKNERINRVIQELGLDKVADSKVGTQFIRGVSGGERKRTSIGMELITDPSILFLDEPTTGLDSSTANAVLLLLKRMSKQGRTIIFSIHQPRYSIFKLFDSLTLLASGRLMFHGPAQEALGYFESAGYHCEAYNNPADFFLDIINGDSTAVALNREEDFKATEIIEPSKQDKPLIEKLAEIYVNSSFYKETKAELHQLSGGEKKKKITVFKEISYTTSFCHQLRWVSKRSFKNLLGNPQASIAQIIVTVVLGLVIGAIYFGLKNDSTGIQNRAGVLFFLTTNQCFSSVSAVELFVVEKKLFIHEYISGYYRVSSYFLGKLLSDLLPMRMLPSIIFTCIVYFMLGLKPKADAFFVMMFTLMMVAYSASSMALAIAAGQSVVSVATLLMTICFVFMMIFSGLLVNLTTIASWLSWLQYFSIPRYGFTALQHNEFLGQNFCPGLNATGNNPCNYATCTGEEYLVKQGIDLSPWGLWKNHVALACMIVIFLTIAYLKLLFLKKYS
- procedureDetails: Bidirectional transport assay across MDCK II-BCRP cell monolayer
- Format: in vitro ADME
- protocolConditions: dog, pH 7.4; 10 μM, 120 min, mean ± SE, n = 2
measurementLabel: Papp A→B at 120 min, 10 μM (×10⁻⁶ cm/s)
The reply should contain only the number, in ×10⁻⁶ cm/s.

# query: Papp A→B at 120 min, 10 μM of entry CC(C)=CCc1cc(/C=C/C(=O)O)ccc1O
1.3
